target: cytochrome b5 (Rattus norvegicus); assay: HSQC perturbation mapping: concentration dependence of hexacyclen-induced heteronuclear correlation peak shifts; settings: 1H-15N HSQC peak shifts, hexacyclen 0.5 to 8 mM, pH 7.0, 1 mM phosphate buffer, 40° C; read-out: dissociation constant
Sequence (P00173 whole entry): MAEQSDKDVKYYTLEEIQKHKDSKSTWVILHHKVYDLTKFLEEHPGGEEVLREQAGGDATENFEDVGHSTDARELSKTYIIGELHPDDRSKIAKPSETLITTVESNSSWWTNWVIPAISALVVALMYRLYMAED
pKd: −log10 of the molar value.
test_readout: pKd

Lookup: Reported pKd, molecule C1CNCCNCCNCCNCCNCCN1 [Hexacyclen, 1,4,7,10,13,16-hexaazacyclooctadecane] : ____
Found: ~2.70
